molecular target: Estrogen receptor (Homo sapiens) (UniProt P03372); assay: OT_ERa_GFPERaERE_0120: Odyssey Thera (OT) 2-hour HeLa Transcription Induction Assay for Estrogen Receptor (AID 2283382)
Sequence (P03372 whole entry, looked up): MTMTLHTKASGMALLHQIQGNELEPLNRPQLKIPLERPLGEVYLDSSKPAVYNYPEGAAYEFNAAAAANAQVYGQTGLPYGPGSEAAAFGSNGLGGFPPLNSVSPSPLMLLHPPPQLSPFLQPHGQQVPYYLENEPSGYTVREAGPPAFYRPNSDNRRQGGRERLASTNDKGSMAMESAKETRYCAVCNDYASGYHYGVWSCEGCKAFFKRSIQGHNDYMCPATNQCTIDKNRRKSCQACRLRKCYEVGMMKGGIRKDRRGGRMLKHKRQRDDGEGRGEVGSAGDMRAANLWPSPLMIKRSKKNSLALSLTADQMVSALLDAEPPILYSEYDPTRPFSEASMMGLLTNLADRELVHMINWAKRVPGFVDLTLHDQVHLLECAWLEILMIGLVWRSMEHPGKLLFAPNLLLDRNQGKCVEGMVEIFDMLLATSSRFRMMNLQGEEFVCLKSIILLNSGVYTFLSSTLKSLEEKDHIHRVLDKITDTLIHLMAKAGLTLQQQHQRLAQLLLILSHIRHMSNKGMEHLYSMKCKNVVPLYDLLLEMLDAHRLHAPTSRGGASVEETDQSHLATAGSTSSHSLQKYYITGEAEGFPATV
Active and inactive are the calls of the source. The calls were made as follows: active = hit-call score of the fitted dose curve at least 0.9, where 1 is the maximum; inconclusive = response in the unintended direction; inactive = score below 0.9.
measured_quantity: outcome

CC(=O)[C@H]1CC[C@H]2[C@@H]3CCC4=CC(=O)CC[C@]4(C)[C@H]3CC[C@]12C	inactive
N#CSCSc1nc2ccccc2s1	inactive
CCOC(=O)NCCOc1ccc(Oc2ccccc2)cc1	inactive
CC1(C)C(C=C(Cl)Cl)C1C(=O)OCc1cccc(Oc2ccccc2)c1 (stereo unspecified)	inactive
O=C(Nc1ccc([N+](=O)[O-])cc1Cl)c1cc(Cl)ccc1O	inactive

stdin: For the molecule Cc1nn(C)c(Oc2ccccc2)c1C=NOCc1ccc(C(=O)OC(C)(C)C)cc1 , report outcome.
stdout: inactive

stdin: Return value of outcome for input CC(=O)S[C@@H]1CC2=CC(=O)CC[C@]2(C)[C@H]2CC[C@@]3(C)[C@@H](CC[C@@]34CCC(=O)O4)[C@H]12 , no commentary.
stdout: inactive

stdin: # return recorded outcome for entry O=C(c1ccccc1)C1CCCCC1
stdout: inactive

stdin: Find the measured outcome of COc1c(Cl)ccc(Cl)c1C(=O)O and report it.
stdout: inactive

stdin: Output outcome of OB(O)O
stdout: inactive

Data origin, for the record: PubChem BioAssay (EPA / NIEHS)
